Just for reference, patent US20240108738A1 is where these values come from.

Biological target: CD16a (F Variant) (Homo sapiens)
Assay: FcγRIII (CD16a) SPR (Method A and/or Method B), F variant
Assay type: binding
Conditions: SPR Method A and/or B, Table 6B; read-out: Kd (nM) (F Variant)
Numbered stars: 1 amine (or outer) side, 2 acyl side, 3 side chain; on linkers, the order of the positions; unused ones are H or OH. Bridge positions count the residues as written; N and C are the ends. Peptide text beside a SMILES is read from it. TATA = O=C(CC[*:1])N1CN(C(=O)CC[*:2])CN(C(=O)CC[*:3])C1
recorded metric: Kd (nM)
Give just the numeric value; nM need not be written.

compound: CC(C)C[C@@H]1NC(=O)[C@@H]2CCCN2C(=O)[C@H](Cc2c[nH]cn2)NC(=O)[C@@H]2CSCCC(=O)N3CN(CN(C3)C(=O)CCSC[C@H](NC(=O)[C@H](C)N)C(=O)N3CCC[C@H]3C(=O)N3CCC[C@H]3C(=O)N[C@@H](CCC(=O)O)C(=O)N[C@@H](C(C)C)C(=O)N[C@@H](Cc3c[nH]c4ccccc34)C(=O)N2)C(=O)CCSC[C@@H](C(=O)N[C@@H](C)C(N)=O)NC(=O)[C@H](CC(=O)O)NC1=O [BCY11811, A-(SEQ ID NO: 172)-A] (H-ACPPEVWCHPLDCA-NH2; linker 2-8-13 via TATA)
unit abbreviation: nM
Kd: 8240

# next compound below
Q: Given the entry CC(C)C[C@@H]1NC(=O)[C@@H]2CCCN2C(=O)[C@H](Cc2c[nH]cn2)NC(=O)[C@@H]2CSCCC(=O)N3CN(CN(C3)C(=O)CCSC[C@H](NC(=O)[C@H](C)N)C(=O)N3CCC[C@H]3C(=O)N3CCC[C@H]3C(=O)N[C@@H](C)C(=O)N[C@@H](C(C)C)C(=O)N[C@@H](Cc3ccc(O)cc3)C(=O)N2)C(=O)CCSC[C@@H](C(=O)N[C@@H](C)C(N)=O)NC(=O)[C@H](CC(=O)O)NC1=O [BCY11673, A-(SEQ ID NO: 169)-A] (H-ACPPAVYCHPLDCA-NH2; linker 2-8-13 via TATA; C-terminus assumed) , report its measured Kd.
A: 17100

====

Target: CD16a (F Variant) (Homo sapiens)
Assay: FcγRIII (CD16a) SPR (Method A and/or Method B), F variant
Assay type: binding
Conditions: SPR Method A and/or B, Table 6B; read-out: Kd (nM) (F Variant)
Numbered stars: 1 amine (or outer) side, 2 acyl side, 3 side chain; on linkers, the order of the positions; unused ones are H or OH. Bridge positions count the residues as written; N and C are the ends. Peptide text beside a SMILES is read from it. TATA = O=C(CC[*:1])N1CN(C(=O)CC[*:2])CN(C(=O)CC[*:3])C1
recorded metric: Kd (nM)
Give just the numeric value; nM need not be written.

compound: CC(C)C[C@@H]1NC(=O)[C@@H]2CCCN2C(=O)[C@H](Cc2c[nH]cn2)NC(=O)[C@@H]2CSCCC(=O)N3CN(CN(C3)C(=O)CCSC[C@H](NC(=O)[C@H](C)N)C(=O)N3CCC[C@H]3C(=O)N3CCC[C@H]3C(=O)N[C@@H](CCC(=O)O)C(=O)N[C@@H](C(C)C)C(=O)N[C@@H](Cc3ccc(O)cc3)C(=O)N2)C(=O)CCSC[C@@H](C(=O)N[C@@H](C)C(N)=O)NC(=O)[C@H](CC(=O)O)NC1=O [BCY11810, A-(SEQ ID NO: 171)-A] (H-ACPPEVYCHPLDCA-NH2; linker 2-8-13 via TATA)
observed value: 3610
--
compound: CC(C)C[C@@H]1NC(=O)[C@@H]2CCCN2C(=O)[C@H](Cc2c[nH]cn2)NC(=O)[C@@H]2CSCCC(=O)N3CN(CN(C3)C(=O)CCSC[C@H](NC(=O)[C@H](C)N)C(=O)N3CCC[C@H]3C(=O)N3CCC[C@H]3C(=O)N[C@@H](CCC(N)=O)C(=O)N[C@@H](C(C)C)C(=O)N[C@@H](Cc3ccc(O)cc3)C(=O)N2)C(=O)CCSC[C@@H](C(=O)N[C@@H](C)C(N)=O)NC(=O)[C@H](CC(=O)O)NC1=O [BCY11812, A-(SEQ ID NO: 173)-A] (H-ACPPQVYCHPLDCA-NH2; linker 2-8-13 via TATA; C-terminus assumed)
observed value: 11800

# next compound below
Q: Given the entry CC(C)C[C@@H]1NC(=O)[C@@H]2CCCN2C(=O)[C@H](Cc2c[nH]cn2)NC(=O)[C@@H]2CSCCC(=O)N3CN(CN(C3)C(=O)CCSC[C@H](NC(=O)[C@H](C)N)C(=O)N3CCC[C@H]3C(=O)N3CCC[C@H]3C(=O)N[C@@H](CCC(=O)O)C(=O)N[C@@H](C(C)C)C(=O)N[C@@H](Cc3ccccc3)C(=O)N2)C(=O)CCSC[C@@H](C(=O)N[C@@H](C)C(N)=O)NC(=O)[C@H](CC(=O)O)NC1=O [BCY11809, A-(SEQ ID NO: 170)-A] (H-ACPPEVFCHPLDCA-NH2; linker 2-8-13 via TATA; N-terminus and C-terminus assumed) , report its measured Kd.
A: 28600
